- TEST_SYSTEM: T1, Taq DNA polymerase (Thermus aquaticus, UniProt P19821 1-832)
- T1 construct: also called Taq enzyme; Taq DNA enzyme
- T1 sequence (P19821 whole entry): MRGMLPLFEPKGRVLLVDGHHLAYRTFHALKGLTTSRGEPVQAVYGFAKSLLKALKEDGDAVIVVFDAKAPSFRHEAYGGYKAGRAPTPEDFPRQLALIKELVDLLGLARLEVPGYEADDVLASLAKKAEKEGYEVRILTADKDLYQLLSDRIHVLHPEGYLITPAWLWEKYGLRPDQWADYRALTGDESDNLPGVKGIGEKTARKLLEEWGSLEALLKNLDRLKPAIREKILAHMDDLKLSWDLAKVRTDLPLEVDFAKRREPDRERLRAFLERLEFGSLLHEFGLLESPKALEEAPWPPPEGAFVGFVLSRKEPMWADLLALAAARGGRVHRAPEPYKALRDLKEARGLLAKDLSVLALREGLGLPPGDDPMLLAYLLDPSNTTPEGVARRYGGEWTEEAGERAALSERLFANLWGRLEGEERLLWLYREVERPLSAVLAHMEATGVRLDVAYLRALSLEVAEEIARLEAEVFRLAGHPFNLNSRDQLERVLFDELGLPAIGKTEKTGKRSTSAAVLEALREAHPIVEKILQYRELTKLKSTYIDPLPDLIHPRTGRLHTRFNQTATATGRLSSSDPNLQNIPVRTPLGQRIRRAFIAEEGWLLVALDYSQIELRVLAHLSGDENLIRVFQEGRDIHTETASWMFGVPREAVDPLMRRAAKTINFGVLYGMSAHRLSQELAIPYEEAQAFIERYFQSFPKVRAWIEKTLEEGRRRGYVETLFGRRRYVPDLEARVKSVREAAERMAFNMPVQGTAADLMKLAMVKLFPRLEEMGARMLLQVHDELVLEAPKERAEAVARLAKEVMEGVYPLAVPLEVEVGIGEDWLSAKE
- METHOD_DESCRIPTION: AMC sensor, antibody immobilised
MEASURE: kon (M⁻¹ s⁻¹)
Just the number please, in M⁻¹ s⁻¹, no unit attached.

binder="WT 1-9 (antibody, V domains shown, WT background; CDRs built) VH: QVQLQQPGAELVKPGASVRLSCQTSVETFTTYYLYWVKQRPGEGLEWIGGVNPTSGGPVFDEKFKSKATLTVDTSSSTAYMQLSSLTSVDSAVYYCTRSILRRGYYPDYWGQGTALTVSS VL: DIQMTQTTSSLSASLGDRVTISCRGSQDINNYLNWYQQKPDGTIKLLIYFTSRLQSGIPSRFSGSGSGTDYSLTIANLEQEDIATYFCQQDDTIPVTWGAGTKVELKR" unit_abbrev="M⁻¹ s⁻¹" test_result=50500
binder="WT 1-8 (antibody, V domains shown, WT background; CDRs built) VH: QVQLQQPGAELVKPGASVRLSCQTSVETFSTYYLYWVKQRPGEGLEWIGGLNPTSNPVFDEKFKSKATLTVDTSSSTAYMQLSSLTSVDSAVYYCTRSLIRRGYYPDYWGQGTALTVSS VL: DIQMTQTTSSLSASLGDRVTISCRGSQDIQNYLNWYQQKPDGTIKLLIYFTSRLNSGLPSRFSGSGSGTDYSLTIANLEQEDIATYFCQQDDTLPLTWGAGTKVELKR" unit_abbrev="M⁻¹ s⁻¹" test_result=32600
binder="Anti-Taq 2C7 recombinant antibody (WT) (antibody, mouse IgG1, kappa, V domains shown, Mouse antibody expressed in CHO cells; also called WT antibody; antibody of sample 1) VH: QVQLQQPGAELVKPGASVRLSCQTSVDTFSTYYLYWVKQRPGEGLEWIGGVNPTSNPVFDEKFKSKATLTVDTSSSTAYMQLSSLTSVDSAVYYCTRSILRRGYYPDYWGQGTALTVSS VL: DIQMTQTTSSLSASLGDRVTISCRGSQDIQNYVNWYQQKPDGTIKLLIYFTSRLQSGIPSRFSGSGSGTDYSLTIANLEQEDIATYFCQQDDTIPVTWGAGTKVELKR" unit_abbrev="M⁻¹ s⁻¹" test_result=59000

Please look up its kon: WT 1-7 (antibody, V domains shown, WT background; CDRs built) VH: QVQLQQPGAELVKPGASVRLSCQTSVDTFTTYYLYWVKQRPGEGLEWIGGINPTSNPVFDEKFKSKATLTVDTSSSTAYMQLSSLTSVDSAVYYCTRSLVRRGYYPDYWGQGTALTVSS VL: DIQMTQTTSSLSASLGDRVTISCRGSQDINNYVNWYQQKPDGTIKLLIYFTSRLNSGVPSRFSGSGSGTDYSLTIANLEQEDIATYFCQQDDTLPITWGAGTKVELKR
86700

Repeat with WT 1-4 (antibody, V domains shown, WT background; CDRs built) VH: QVQLQQPGAELVKPGASVRLSCQTSVNTFSTYYLYWVKQRPGEGLEWIGGINPTSGGPVFDEKFKSKATLTVDTSSSTAYMQLSSLTSVDSAVYYCTRSVVRRGYYPDYWGQGTALTVSS VL: DIQMTQTTSSLSASLGDRVTISCRGSQDIQNYINWYQQKPDGTIKLLIYFTSRLHSGVPSRFSGSGSGTDYSLTIANLEQEDIATYFCQQDDTVPITWGAGTKVELKR
88400
